B1: CRYL1 (parent)
chain: RNALENIRKEMKLLEQAGSLKGSL

# Variants of: B1
# Measurement protocol: protein stability index of a GFP-peptide fusion (GPS, HEK-293T) (PSI 1-6); higher = more stable;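 also: lentivirally expressed fusions sorted by FACS into six bins by GFP to DsRed ratio, PSI derived from sequencing read proportions per bin multiplied by bin number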
# Condition description: c terminus: a fixed tail appended
Provide the reported protein stability index of each item.
Give bare numbers.

Example variants with recorded protein stability index:
# Alteration, protein stability index
records = [
    ("E15Y", 2.21),
    ("A3K", 3.48),
    ("L13E", 3.94),
    ("N2W", 2.34),
    ("E15M", 2.87),
]

# return protein stability index for each item in the list
1. L20C
2. A3Q
3. S19H

OUT:
[3.65, 3.9, 3.04]

For each of the variants below, note its protein stability index.
1. G22S
2. G22Q
3. I7D

OUT:
1: 3.14; 2: 3.36; 3: 4.75
